# target.of.assay: human orexin-1 receptor (Homo sapiens (Human))
# Sequence (O43613 whole entry): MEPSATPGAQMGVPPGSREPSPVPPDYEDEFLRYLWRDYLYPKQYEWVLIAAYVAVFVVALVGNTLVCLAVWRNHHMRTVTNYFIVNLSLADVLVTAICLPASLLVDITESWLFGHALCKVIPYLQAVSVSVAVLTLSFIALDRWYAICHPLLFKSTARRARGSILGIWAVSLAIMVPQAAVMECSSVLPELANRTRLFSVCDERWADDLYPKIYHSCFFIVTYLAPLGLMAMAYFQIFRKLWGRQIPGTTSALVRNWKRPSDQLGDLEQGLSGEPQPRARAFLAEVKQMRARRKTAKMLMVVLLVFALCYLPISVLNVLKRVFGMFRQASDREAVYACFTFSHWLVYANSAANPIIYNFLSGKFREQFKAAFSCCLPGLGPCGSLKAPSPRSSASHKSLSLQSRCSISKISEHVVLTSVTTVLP
# run.description: In vitro intracellular calcium measurements (FLIPR), antagonistic activity on orexin-1 receptor
# Format: cell-based
# protocol.conditions: CHO cells expressing human orexin-1 receptor; FLIPR; 3 nM orexin-A agonist; 120 min antagonist incubation; geometric mean if determined several times; read-out: IC50 OX1
Measured pIC50 of individual entries
The scale used: pIC50 is minus the common logarithm of the concentration in molar units.

Study these solved cases before continuing.
# sample.smiles, target.of.assay, result.type, endpoint.result
data = [
    ("Cc1ccc(-n2nccn2)cc1C[C@@H]1COCCN1C(=O)c1ccc(Cl)cc1-n1nccn1", "human orexin-1 receptor (Homo sapiens (Human))", "pIC50", 7.92),
    ("COc1ccc(-n2nccn2)c(C(=O)N2CCOC[C@H]2Cc2cccc(-c3ncccn3)c2)c1", "human orexin-1 receptor (Homo sapiens (Human))", "pIC50", 8.70),
    ("Cc1ccc(-n2nccn2)c(C(=O)N2CCOC[C@H]2Cc2cccc(-c3ncon3)c2)c1", "human orexin-1 receptor (Homo sapiens (Human))", "pIC50", 8.15),
    ("Cc1cc(C)c(-n2nccn2)c(C(=O)N2CCOC[C@H]2Cc2cccc(-n3nccn3)c2)c1", "human orexin-1 receptor (Homo sapiens (Human))", "pIC50", 8.52),
    ("O=C(c1ccccc1-n1nccn1)N1CCC[C@H]1Cc1cccc(-n2nccn2)c1", "human orexin-1 receptor (Homo sapiens (Human))", "pIC50", 8.40),
    ("Cc1ccc(C(=O)N2C[C@@H](C)OC[C@H]2Cc2cc(-c3cccnn3)ccc2F)c(-n2nccn2)c1", "human orexin-1 receptor (Homo sapiens (Human))", "pIC50", 7.85),
    ("COc1ccc(C[C@@H]2COCCN2C(=O)c2ccccc2-n2nccn2)cc1-c1cccnc1", "human orexin-1 receptor (Homo sapiens (Human))", "pIC50", 8.22),
    ("O=C(c1c(F)cccc1-n1nccn1)N1CCOC[C@H]1Cc1cc(-n2nccn2)ccc1F", "human orexin-1 receptor (Homo sapiens (Human))", "pIC50", 7.43),
]

Input line: Please give the documented pIC50 of "COc1ccc(C[C@@H]2COCCN2C(=O)c2ccccc2-n2nccn2)cc1-c1ccccn1"
Output line: 8.40

Input line: Please give the documented pIC50 of "C[C@@H]1CN(C(=O)c2cc(Cl)ccc2-n2nccn2)[C@H](Cc2cc(-n3nccn3)ccc2F)CO1"
Output line: 7.96

Input line: Please give the documented pIC50 of "Cc1ccc(C[C@@H]2COCCN2C(=O)c2ccccc2-n2nccn2)cc1-n1nccn1"
Output line: 7.80

Hello, the source for this data is patent US9150566B2, in case you need it.
